Origin of measurements: a melting point compilation (Tetko et al.; mined from patent text by program, amines drawn as free bases though some values may be those of a salt)

In this section we review reported melting point values for a set of compounds.

- compound: "COCCOc1cc2ncnc(Oc3ccc(Cl)cc3F)c2cc1OC"
  result: "167 to 168 °C"
- compound: "CCN(CC)C/C=C/c1ccc2c(Nc3ccc(Sc4nccn4C)c(Cl)c3)c(C#N)cnc2c1"
  result: "223 to 228 °C"

Summary for this compound, COC(=O)C(C)Oc1cc(Cl)ccc1COc1ccc(-c2nn(C)c(OC(F)F)c2Cl)cc1 (stereo not given) : melting point is 61 to 64 °C

Summary for this compound, Cc1[nH]c(=O)cc2c1CC(c1ccccn1)CC2 (stereo not given) : melting point is 260 °C

Summary for this compound, "CC(C)n1nc(-c2c(Nc3ccccc3)nc(N)nc2-c2ccccc2)ccc1=O" : melting point is 240 to 242 °C

Summary for this compound, "Cc1c(N2C[C@@H](NC(=O)C(F)(F)F)C3(CC3)C2)c(F)c(N)c2c(=O)c(C(=O)O)cn(C3CC3)c12" : melting point is 246 to 248 °C

Summary for this compound, "c1ccc2c(c1)ncc1nc(C3CCCCCC3)[nH]c12" : melting point is 225 to 226 °C

Summary for this compound, "COc1ccc(Nc2ccc(OCc3ccccc3)cc2)c(CO)c1" : melting point is 100 to 101 °C

Summary for this compound, "Cc1cc2c3c(ccc2cc1C=O)OC(=O)C3(C)C" : melting point is 193 to 195 °C

Summary for this compound, "O=C(c1cc(O)c(O)c(O)c1)c1csc(-c2ccccc2)n1" : melting point is 175 to 176 °C

###

In this section we review reported melting point values for a set of molecules.

- molecule: "Cc1cc2cc(CN3CCC(CCC(N)=O)CC3)cnc2cc1NC(=O)c1ccc(-c2ccc(F)cc2)cc1"
  result: "223 to 227 °C"
- molecule: "COc1ccc(-c2cc(=O)c3c(O)cc(O)cc3o2)cc1OCC(O)CO (stereo not given)"
  result: "215 to 218 °C"

Summary for this molecule, "COc1cc(OC)c2c(=O)cc(-c3cc[nH]n3)oc2c1" : melting point is 197 to 198 °C

Summary for this molecule, "CCc1cc2cc(O)ccc2c(Oc2ccc(/C=C/C(=O)N3CCN(C)CC3)cc2)c1-c1ccccc1" : melting point is 195 to 196 °C

Summary for this molecule, CC(C)CNCc1cc2cc(NC(=O)c3ccc(OCC4CCOC4)cc3)ccc2n1C (stereo not given) : melting point is 125 to 126 °C

###

In this section we review reported melting point values for a set of compounds.

// worked examples, melting point included
- compound: "COc1ccc(CN2C(=O)C(c3cc(C#N)c(O)cc3O)c3ccccc32)cc1 (stereo not drawn)"
  result: "162 to 163 °C"
- compound: "CN(C(=O)Cc1ccccc1)c1ccc(OC23CC4CC(CC(C4)C2)C3)cc1"
  result: "89 to 91 °C"
- compound: "O=S(=O)(Nc1c(F)cccc1F)c1nc2ncc(Cl)cn2n1"
  result: "224 to 226 °C"
- compound: "CCOC(=O)C1=C(COCCN=[N+]=[N-])NC(C)=C(C(=O)OC)C1c1cccc(C(F)(F)F)c1Cl (stereo not drawn)"
  result: "143 to 145 °C"
- compound: "CC(C)=CC(=O)N1CC(NC(=O)Nc2cccc(C(=O)O)c2)C(=O)N(CC(=O)c2ccccc2C)c2cc(C)ccc21 (stereo not drawn)"
  result: "240 to 242 °C"
- compound: "Cc1c(F)cc(C(=O)NCC2CC2)cc1-c1ccc(C(=O)NCC(C)(C)C)cc1C(=O)Nc1nccs1"
  result: "179 to 183 °C"
- compound: "COc1cc(Nc2nc3cccc(-c4cccc(N)c4)c3o2)cc(OC)c1OC"
  result: "145 to 170 °C"

Summary for this compound, "CCn1cc(C(=O)O)c(=O)c2ccc(-n3cccc3)nc21" : melting point is 230 to 232 °C
